Source listed as ChEMBL document CHEMBL3244110.

- System: Mus musculus
- Assay explanation: Antipsychotic activity in mouse assessed as protection against amphetamine-induced lethality at 5 mg/kg, ip treated 30 mins before amphetamine challenge
- Format: functional, organism-based
- Design: dose 5 mg/kg
Calls of active or inactive are those of the source. No cut-off for these calls is given here.
Can you answer with just one of these options? active, inactive

c1ccc(C2=Nc3ccccc3N=C(N3CCC(C(c4ccccc4)c4ccccc4)CC3)C2)cc1    inactive
FC(F)(F)c1ccc(C2CCN(C3=Nc4ccccc4N=C(c4ccccc4)C3)CC2)cc1    active

Check the results log: what was the call for c1ccc(C2=Nc3ccccc3N=C(N3CCOCC3)C2)cc1 ?
inactive

Quick one: CN1CCN(C2=Nc3cc(Cl)ccc3N=C(c3ccccc3)C2)CC1
active

What about this compound? CN1CCN(C2=Nc3ccccc3N=C(c3ccccc3)C2)CC1
inactive

Then what about the compound CN(CCO)C1=Nc2ccccc2N=C(c2ccccc2)C1 ?
inactive

Then OCCN1CCN(CCCN2c3ccccc3Sc3ccc(C(F)(F)F)cc32)CC1 ?
active

Try c1ccc(C2=Nc3ccccc3N=C(N3CCC(N4CCCCC4)CC3)C2)cc1 next.
inactive

// same read-out, input: C1=C(c2ccccc2)CCN(C2=Nc3ccccc3N=C(c3ccccc3)C2)C1
inactive

Cool, now FC(F)(F)c1ccc(C2=CCN(C3=Nc4ccccc4N=C(c4ccccc4)C3)CC2)cc1
inactive
